Sourced from ChEMBL document CHEMBL1129678

target: Glutamate receptor ionotropic, kainate; experiment: Antagonistic activity against rat ionotropic glutamate receptor ionotropic kainate in xenopus oocytes; conditions: oocyte
pIC50: −log10 of the molar value.
Quantity Kind: pIC50

- Compound: "O=C(O)c1cc2ccc([N+](=O)[O-])cc2nc1O"
  System Name: "Glutamate receptor ionotropic, kainate"
  Quantity Kind: "pIC50"
  Readout Relation: "="
  Numeric Readout: 5.89
- Compound: "O=P(O)(O)c1cc2cc(F)c(F)cc2nc1O"
  System Name: "Glutamate receptor ionotropic, kainate"
  Quantity Kind: "pIC50"
  Readout Relation: "="
  Numeric Readout: 4.19
- Compound: "NC(=O)c1cc2ccc([N+](=O)[O-])cc2nc1O"
  System Name: "Glutamate receptor ionotropic, kainate"
  Quantity Kind: "pIC50"
  Readout Relation: "<"
  Numeric Readout: 3.52
- Compound: "O=c1[nH]c2cc(Cl)c(Cl)cc2cc1P(=O)(O)O"
  System Name: "Glutamate receptor ionotropic, kainate"
  Quantity Kind: "pIC50"
  Readout Relation: "="
  Numeric Readout: 5.68
- Compound: "O=P(O)(O)c1cc2c(Cl)cc(Cl)cc2nc1O"
  System Name: "Glutamate receptor ionotropic, kainate"
  Quantity Kind: "pIC50"
  Readout Relation: "="
  Numeric Readout: 5.40
- Compound: "OB(O)c1cc2c(Cl)cc(Cl)cc2nc1O"
  System Name: "Glutamate receptor ionotropic, kainate"
  Quantity Kind: "pIC50"
  Readout Relation: "<"
  Numeric Readout: 4.00
- Compound: "O=P(O)(OCC1CCCC1)c1cc2cc(Cl)c(Cl)cc2nc1O"
  System Name: "Glutamate receptor ionotropic, kainate"
  Quantity Kind: "pIC50"
  Readout Relation: "="
  Numeric Readout: 4.82
- Compound: "O=[N+]([O-])c1cc2cc(P(=O)(O)O)c(O)nc2cc1[N+](=O)[O-]"
  System Name: "Glutamate receptor ionotropic, kainate"
  Quantity Kind: "pIC50"
  Readout Relation: "="
  Numeric Readout: 6.82
- Compound: "O=c1[nH]c2cc([N+](=O)[O-])ccc2cc1-c1cc(O)n[nH]1"
  System Name: "Glutamate receptor ionotropic, kainate"
  Quantity Kind: "pIC50"
  Readout Relation: "<"
  Numeric Readout: 4.52
- Compound: "CP(=O)(O)c1cc2c(Cl)cc(Cl)cc2nc1O"
  System Name: "Glutamate receptor ionotropic, kainate"
  Quantity Kind: "pIC50"
  Readout Relation: "<"
  Numeric Readout: 4.00
- Compound: "O=[N+]([O-])c1ccc2cc(-c3nn[nH]n3)c(O)nc2c1"
  System Name: "Glutamate receptor ionotropic, kainate"
  Quantity Kind: "pIC50"
  Readout Relation: "="
  Numeric Readout: 5.52
- Compound: "O=C(O)c1cc2c(Cl)cc(Cl)cc2nc1O"
  System Name: "Glutamate receptor ionotropic, kainate"
  Quantity Kind: "pIC50"
  Readout Relation: "="
  Numeric Readout: 5.10

---

biological target: Glutamate receptor ionotropic, kainate; test: Antagonistic activity against rat ionotropic glutamate receptor ionotropic kainate in xenopus oocytes; settings: oocyte
Below is a list of entries, each paired with its recorded IC50 value.
Quantity Kind: IC50 (µM)

- Molecule: "O=[N+]([O-])c1ccc2cc(P(=O)(O)O)c(O)nc2c1"
  Value Units: "µM"
  Readout Relation: "="
  Numeric Readout: 1.4
- Molecule: "O=C(O)c1cc2cc([N+](=O)[O-])c([N+](=O)[O-])cc2nc1O"
  Value Units: "µM"
  Readout Relation: "="
  Numeric Readout: 0.3
- Molecule: "O=[N+]([O-])c1ccc2cc(-c3nnc(O)o3)c(O)nc2c1"
  Value Units: "µM"
  Readout Relation: ">"
  Numeric Readout: 100
- Molecule: "O=c1[nH]c2cc(-n3ccnc3)c([N+](=O)[O-])cc2[nH]c1=O [YM-90K]"
  Value Units: "µM"
  Readout Relation: "="
  Numeric Readout: 0.3
- Molecule: "O=C(O)CSc1cc2ccc([N+](=O)[O-])cc2nc1O"
  Value Units: "µM"
  Readout Relation: "="
  Numeric Readout: 5
- Molecule: "O=C(Nc1nn[nH]n1)c1cc2ccc([N+](=O)[O-])cc2nc1O"
  Value Units: "µM"
  Readout Relation: "="
  Numeric Readout: 100
- Molecule: "O=C(O)c1cc2cc(Cl)c(Cl)cc2nc1O"
  Value Units: "µM"
  Readout Relation: "="
  Numeric Readout: 10
- Molecule: "O=C(NO)c1cc2ccc([N+](=O)[O-])cc2nc1O"
  Value Units: "µM"
  Readout Relation: "="
  Numeric Readout: 10
- Molecule: "O=[N+]([O-])c1cc2cc(NS(=O)(=O)C(F)(F)F)c(O)nc2cc1[N+](=O)[O-]"
  Value Units: "µM"
  Readout Relation: "="
  Numeric Readout: 0.16
- Molecule: "CCOP(=O)(O)c1cc2cc(Cl)c(Cl)cc2nc1O"
  Value Units: "µM"
  Readout Relation: "="
  Numeric Readout: 15
- Molecule: "O=[N+]([O-])c1cc2cc(-c3nn[nH]n3)c(O)nc2cc1[N+](=O)[O-]"
  Value Units: "µM"
  Readout Relation: "="
  Numeric Readout: 0.6
